- System: Human immunodeficiency virus 1
- ASSAY_DETAILS: Antiviral activity against HIV1 Rojo in human CEM cells
- Type: functional, organism-based
- SETUP_CONDITIONS: Human immunodeficiency virus 1, Rojo, CCRF-CEM
pEC50: −log10 of the molar value.
EXPERIMENTAL_ENDPOINT: pEC50

CC(C)CC(=O)N[C@H](C(=O)N[C@H](C(=O)N[C@@H](CC(C)C)[C@@H](O)CC(=O)N[C@@H](C)C(=O)N[C@@H](CC(C)C)[C@@H](O)CC(=O)O)C(C)C)C(C)C = 3.82

* * *

- ASSAY_DETAILS: Therapeutic index, ratio of cytotoxicity against human MT2 cells to EC50 for HIV1 LAI
- Type: cell-based
- SETUP_CONDITIONS: read-out: TI
EXPERIMENTAL_ENDPOINT: selectivity ratio

COC(=O)C(=O)O[C@]1(C(=O)O)C[C@@H](OC(=O)/C=C/c2ccc(O)c(O)c2)[C@H](O)[C@H](OC(=O)/C=C/c2ccc(O)c(O)c2)C1 = 87
O=C(/C=C/c1ccc(O)c(O)c1)O[C@@H]1C[C@](O)(C(=O)O)C[C@@H](OC(=O)/C=C/c2ccc(O)c(O)c2)[C@H]1O = 150

* * *

- Test system: Human immunodeficiency virus 1
- ASSAY_DETAILS: Antiviral activity against HIV1 3B in human H9 cells assessed as inhibition of virus-induced cytopathic effect by formazan-based conventional colorimetric technique
- Type: functional, organism-based
- SETUP_CONDITIONS: Human immunodeficiency virus 1, 3B
pEC50: −log10 of the molar value.
# Lookup of reported pEC50 keyed by entry
EXPERIMENTAL_ENDPOINT: pEC50

Nc1ncnc2c1ncn2[C@@H]1O[C@H](CO)C[C@@H]1F = 5.94
Cc1cn([C@H]2C=C[C@@H](CO)O2)c(=O)[nH]c1=O = 7.22
Cc1cn([C@H]2C[C@H](N=[N+]=[N-])[C@@H](CO)O2)c(=O)[nH]c1=O = 9.00
Nc1ccn([C@@H]2CS[C@H](CO)O2)c(=O)n1 = 7.22
Nc1ccn([C@H]2CC[C@@H](CO)O2)c(=O)n1 = 9.00

* * *

# Lookup of reported selectivity ratio keyed by entry
- ASSAY_DETAILS: Therapeutic index, ratio of cytotoxicity against human CEM-SS cells to EC50 for HIV1 RF
- Assay type: cell-based
- SETUP_CONDITIONS: read-out: TI
EXPERIMENTAL_ENDPOINT: selectivity ratio

CCCc1cc(=O)oc2c3c(c4c(c12)OC(C)(C)CC4)O[C@@H](C)[C@H](C)[C@@H]3O [7,8-DIHYDROCALANOLIDE B] = 99.8
O=C(O[C@@H]1C[C@](OC(=O)c2cc(O)c(O)c(O)c2)(C(=O)O)C[C@@H](OC(=O)c2cc(O)c(O)c(O)c2)[C@H]1OC(=O)c1cc(O)c(O)c(O)c1)c1cc(O)c(O)c(O)c1 = 20
C=CC(C)(C)C1(CC=C(C)C)C(=O)Nc2ccccc2C1=O (stereo not drawn) [BUCHAPINE] = 31
CC(C)=CCOc1c(CC=C(C)C)c(O)nc2ccccc12 = 17
CN1CCCCC1c1c(O)cc(O)c2c(=O)cc(-c3ccccc3)oc12 (stereo not drawn) = 3
COc1cc2c[n+](C)c3c4cc5c(cc4ccc3c2cc1OC)OCO5 [NITIDINE CHLORIDE] = 3
CCCc1cc(=O)oc2c3c(c4c(c12)OC(C)(C)C=C4)O[C@H](C)[C@@H](C)[C@@H]3O [CALANOLIDE A] = 103

* * *

- SYSTEM_UNDER_TEST: Human immunodeficiency virus type 1 integrase (Human immunodeficiency virus 1, UniProt Q7ZJM1)
- Sequence (Q7ZJM1 whole entry): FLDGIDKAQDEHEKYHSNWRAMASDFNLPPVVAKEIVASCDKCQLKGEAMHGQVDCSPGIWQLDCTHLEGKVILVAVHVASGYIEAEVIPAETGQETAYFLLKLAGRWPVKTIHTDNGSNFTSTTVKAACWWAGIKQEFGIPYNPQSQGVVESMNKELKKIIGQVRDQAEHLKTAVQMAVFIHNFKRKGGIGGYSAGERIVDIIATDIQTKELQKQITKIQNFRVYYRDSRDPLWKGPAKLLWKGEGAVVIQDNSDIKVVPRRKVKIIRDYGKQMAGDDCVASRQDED
pIC50: −log10 of the molar value.
EXPERIMENTAL_ENDPOINT: pIC50

O=C(/C=C/c1ccc(O)c(O)c1)O[C@@H]1C[C@](O)(C(=O)O)C[C@@H](OC(=O)/C=C/c2ccc(O)c(O)c2)[C@H]1O = 5.89
COC(=O)C(=O)O[C@]1(C(=O)O)C[C@@H](OC(=O)/C=C/c2ccc(O)c(O)c2)[C@H](O)[C@H](OC(=O)/C=C/c2ccc(O)c(O)c2)C1 = 6.02

* * *

- ASSAY_DETAILS: Therapeutic index, ratio of cytotoxicity against human H9 cells to EC50 for HIV1 3B
- Type: cell-based
- SETUP_CONDITIONS: read-out: TI
# Lookup of reported selectivity ratio keyed by entry
EXPERIMENTAL_ENDPOINT: selectivity ratio

O=c1[nH]cnc2c1ncn2[C@H]1CC[C@@H](CO)O1 [DIDANOSINE] = 1760
Nc1ccn([C@H]2CC[C@@H](CO)O2)c(=O)n1 [ZALCITABINE] = 200

* * *

# Lookup of reported selectivity ratio keyed by entry
- ASSAY_DETAILS: Therapeutic index, ratio of cytotoxicity against human H9 cells to EC50 for HIV1 RF
- Type: cell-based
- SETUP_CONDITIONS: read-out: TI
EXPERIMENTAL_ENDPOINT: selectivity ratio

O=c1[nH]cnc2c1ncn2[C@H]1CC[C@@H](CO)O1 = 1760
Nc1ccn([C@H]2CC[C@@H](CO)O2)c(=O)n1 = 200

* * *

# Lookup of reported selectivity ratio keyed by entry
- ASSAY_DETAILS: Therapeutic index, ratio of cytotoxicity against human H9 cells to EC50 for HIV1 RF
- Type: cell-based
- SETUP_CONDITIONS: read-out: TI
EXPERIMENTAL_ENDPOINT: selectivity ratio

Cc1cn([C@H]2C[C@H](N=[N+]=[N-])[C@@H](CO)O2)c(=O)[nH]c1=O [ZIDOVUDINE] = > 1000
CSC[C@H](NC(=O)COc1cccc2cnccc12)C(=O)N[C@@H](Cc1ccccc1)[C@H](O)C(=O)N1CSC[C@H]1C(=O)NC(C)(C)C = > 4.6
Nc1ncnc2c1ncn2[C@@H]1O[C@H](CO)C[C@@H]1F [LODENOSINE] = > 17
